The entries below come with measured pKd values attached.
# test.system: GABARAP (γ-aminobutyric acid type A receptor-associated protein) (human, UniProt O95166 1-117)
# Sequence (O95166 whole entry): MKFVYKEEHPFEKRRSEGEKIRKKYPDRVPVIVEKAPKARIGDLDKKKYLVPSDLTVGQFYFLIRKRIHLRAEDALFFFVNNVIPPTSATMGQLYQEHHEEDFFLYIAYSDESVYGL
# protocol: BLI
pKd: −log10 of the molar value. Where no end group is shown, it is not given here. The star is where a group is joined. Biotin = O=C1N[C@H]2[C@H](CS[C@H]2CCCCC(=O)*)N1

[
  {
    "binder": "Biotin-STAENAEYLRVAPQSSEFIGA [EGFR LIR2 peptide (EGFR residues 1190–1210), N-terminally biotinylated]",
    "pKd": 3.52
  },
  {
    "binder": "Biotin-ISQKSDEEDFVKVED [PCM1 LIR peptide (pericentriolar material 1 protein residues 1954-1968), N-terminally biotinylated]",
    "pKd": 5.43
  }
]

Where do these numbers come from? They come from paper doi:10.1101/2024.07.10.602929.
